Each recorded value in this set is attributed to paper PMC6152226.

- TEST DETAILS: ABTS radical method
- STATED CONDITIONS: individual compounds; maximum assay concentration 100 mM
This section presents molecules with their documented ABTS values.
REPORTED PROPERTY: ABTS

{"columns": ["MOLECULE", "REPORTED PROPERTY", "READING"],
 "data": [
  ["CC1=CCC(O)(C(C)C)CC1 (stereo not drawn)", "ABTS", "0.3 ± 0.0 µmol TE/mmol X"],
  ["CC(C)C12CCC(C)(O)C1C2 (stereo not drawn) [Sabinene hydrate]", "ABTS", "0.5 ± 0.0 µmol TE/mmol X"],
  ["CC1=CCC(C(C)C)=CC1", "ABTS", "2.5 ± 0.1 µmol TE/mmol X"],
  ["C=C(C)[C@H]1CC=C(C)CC1", "ABTS", "0.6 ± 0.0 µmol TE/mmol X"],
  ["C=CC(C)(O)CCC=C(C)C (stereo not drawn)", "ABTS", "0.1 ± 0.0 µmol TE/mmol X"],
  ["C=C1C2CCC(C2)C1(C)C (stereo not drawn)", "ABTS", "0.1 ± 0.0 µmol TE/mmol X"],
  ["Cc1ccc(C(C)C)cc1", "ABTS", "0.1 ± 0.0 µmol TE/mmol X"]
]}
